Entry source: patent US20250263408A1

System: Ba/F3-WT (wild type) cells
protocol description: Ba/F3 Proliferation Assay, Ba/F3-WT (wild type) cells with mIL-3 (Resazurin)
Format: cell-based
condition notes: Mus musculus, BaF3, 48 h, Ba/F3-WT cells +mIL-3, 48-hour incubation
parameter: EC50 (nM)

[[record]]
compound = "CC(C)(C)n1cc(-c2cc3ncccc3c(OC[C@@H]3CNCCCO3)n2)cn1"
measurement_unit = "nM"
test_result = 3050

[[record]]
compound = "c1cnc2cc(-c3ccn(C4CCC4)c3)nc(OC[C@@H]3CNCCO3)c2c1"
measurement_unit = "nM"
test_result = 2460

[[record]]
compound = "Cn1ccc(-c2cc(OC[C@@H]3CNCC4(CCC4)O3)c3cccnc3c2)c1"
measurement_unit = "nM"
test_result = 1790


(1) C[C@@H](Oc1cc(-c2ccn(CC(F)F)c2)cc2nccnc12)[C@@H]1CNCCO1
(2) CC(C)(C)n1cc(-c2cc3ncccc3c(OC[C@@H]3CNC[C@H](C(F)(F)F)O3)n2)cn1
Pick the one with the larger EC50: 1 vs 2 Could you answer with the label of the item you picked?
2

* * *

Test system: Ba/F3-WT (wild type) cells
protocol description: Ba/F3 Proliferation Assay, Ba/F3-WT (wild type) cells with mIL-3 (Resazurin)
Type: cell-based
condition notes: Mus musculus, BaF3, 48 h, Ba/F3-WT cells +mIL-3, 48-hour incubation
pEC50: −log10 of the molar value.
parameter: pEC50

Answered examples (2):
[[record]]
molecule = "C[C@@H]1O[C@@H](COc2nc(-c3cnn(C(C)(C)C)c3)cc3ncccc23)CN[C@@H]1C (racemic)"
test_result = 5.80

[[record]]
molecule = "C[C@@H]1CNC[C@@H](COc2cc(-c3ccn(C)c3)cc3ncccc23)O1"
test_result = 5.65


(a) CC(C)n1cc(-c2cc3ncccc3c(OC[C@@]3(C)CNCCO3)n2)cn1
(b) Cc1noc(C)c1-c1cc2ncccc2c(OC[C@@H]2CNCCO2)n1
Sorting ascending by pEC50, which comes first: a or b ? Could you answer with the label of the item you picked?
b
(b: 5.32, a: 5.72)

* * *

Test system: Ba/F3-WT (wild type) cells
protocol description: Ba/F3 Proliferation Assay, Ba/F3-WT (wild type) cells with mIL-3 (Resazurin)
Type: cell-based
condition notes: Mus musculus, BaF3, 48 h, Ba/F3-WT cells +mIL-3, 48-hour incubation
parameter: EC50 (nM)

Answered examples (4):
[[record]]
compound = "CCn1ccc(-c2cc(OC[C@@H]3CNCCCO3)c3nccnc3c2)c1 [Compound 8.9]"
test_result = 1620

[[record]]
compound = "Cc1cc(-c2cc(OC[C@@H]3CNCCO3)c3cccnc3c2)cs1 [Compound 3.7]"
test_result = 3730

[[record]]
compound = "CC(C)(C)n1cc(-c2cc3ncccc3c(OC[C@@H]3CNCC4(CC4)O3)n2)cn1 [Compound 2.63]"
test_result = 2870

[[record]]
compound = "Cn1cc(-c2cc3ncccc3c(OC[C@@H]3CNCC(C)(C)O3)n2)cn1 [Compound 2.32]"
test_result = 4760


(A) CC1(C)CNC[C@@H](COc2cc(-c3cnn(CC(F)F)c3)cc3ncccc23)O1 [Compound 3.12]
(B) CC(C)n1cc(-c2cc3ncccc3c(OC[C@]3(C)CNCCO3)n2)cn1 [Compound 10.6]
Sorting ascending by EC50, which comes first: A or B ? Could you answer with the label of the item you picked?
B
